Below are pIC50 values recorded for UniProt P0C6X1.
By convention, pIC50 is the negative base-10 log of a molar concentration.

// worked examples, pIC50 included
Compound	Assay system	pIC50
CCC(C)(C)[C@H](NC(=O)[C@@H](C)F)C(=O)N1C[C@H]2[C@@H]([C@H]1C(=O)NN(C[C@@H]1CCNC1=O)C(=O)[C@H](F)Cl)C2(C)C	UniProt P0C6X1	7.46
CCC(C)(C)[C@H](NC(=O)[C@H](C)F)C(=O)N1C[C@H]2[C@@H]([C@H]1C(=O)NN(C[C@@H]1CCNC1=O)C(=O)[C@H](F)Cl)C2(C)C	UniProt P0C6X1	7.51
CC(C)(C)[C@H](NC(=O)C(F)(F)F)C(=O)N1C[C@@H]2CCC[C@@H]2[C@H]1C(=O)NN(C[C@@H]1CCNC1=O)C(=O)[C@H](F)Cl	UniProt P0C6X1	7.41
CCC(CC)[C@H](NC(=O)C1CC(F)(F)C1)C(=O)N1C[C@H]2[C@@H]([C@H]1C(=O)NN(C[C@@H]1CCNC1=O)C(=O)[C@H](F)Cl)C2(C)C	UniProt P0C6X1	7.49

Recorded result, CC[C@H](C)[C@H](NC(=O)[C@H](F)Cl)C(=O)N1C[C@H]2[C@@H]([C@H]1C(=O)NN(C[C@@H]1CCCNC1=O)C(=O)[C@H](F)Cl)C2(C)C , pIC50: 7.59

Recorded result, CC[C@H](C)[C@H](NC(=O)C1(F)CC1)C(=O)N1C[C@H]2[C@@H]([C@H]1C(=O)NN(C[C@@H]1CCCNC1=O)C(=O)[C@H](F)Cl)C2(C)C [Example 166a] , pIC50: 7.33

Recorded result, CC[C@H](C)[C@H](NC(=O)C(F)(F)C(F)(F)F)C(=O)N1C[C@@H]2CCC[C@@H]2[C@H]1C(=O)NN(C[C@@H]1CCNC1=O)C(=O)[C@H](F)Cl , pIC50: 7.77

Recorded result, CC(C)(C)[C@H](NC(=O)C1(F)CC1)C(=O)N1C[C@@H]2CCC[C@@H]2[C@H]1C(=O)NN(C[C@@H]1CCNC1=O)C(=O)[C@H](F)Cl , pIC50: 7.48

Recorded result, CC1([C@H](NC(=O)C(F)(F)F)C(=O)N2CC3(CC3)C[C@H]2C(=O)NN(C[C@@H]2CCNC2=O)C(=O)[C@H](F)Cl)CC1 , pIC50: 7.51

Recorded result, CC(C)(C)[C@H](NC(=O)[C@@H]1CC1(F)F)C(=O)N1C[C@@H]2CCC[C@@H]2[C@H]1C(=O)NN(C[C@@H]1CCNC1=O)C(=O)[C@@H](F)Cl , pIC50: 7.40

Recorded result, CC[C@H](C)[C@H](NC(=O)C(C)(C)C)C(=O)N1C[C@H]2[C@@H]([C@H]1C(=O)NN(C[C@@H]1CCNC1=O)C(=O)[C@H](F)Cl)C2(C)C , pIC50: 7.66

###

biological target: HCoV-229E 3CLpro (Human coronavirus 229E, UniProt P0C6X1)
Sequence (P0C6X1 2966-3267): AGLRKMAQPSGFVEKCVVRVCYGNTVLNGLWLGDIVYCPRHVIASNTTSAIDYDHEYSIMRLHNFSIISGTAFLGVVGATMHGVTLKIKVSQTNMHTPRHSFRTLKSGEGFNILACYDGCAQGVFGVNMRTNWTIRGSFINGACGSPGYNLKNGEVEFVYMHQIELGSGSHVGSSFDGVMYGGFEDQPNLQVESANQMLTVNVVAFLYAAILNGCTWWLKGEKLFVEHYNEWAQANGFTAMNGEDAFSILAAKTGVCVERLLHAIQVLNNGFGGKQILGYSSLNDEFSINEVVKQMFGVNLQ
Reported property: pIC50
By convention, pIC50 is the negative base-10 log of a molar concentration.

// worked examples, pIC50 included
1. CC(C)(C)[C@H](NC(=O)C1CC(F)(F)C1)C(=O)N1C[C@@H]2CCC[C@@H]2[C@H]1C(=O)NN(C[C@@H]1CCNC1=O)C(=O)[C@H](F)Cl 7.66
2. CC[C@@H](C)[C@H](NC(=O)C1(F)CCC1)C(=O)N1C[C@H]2[C@@H]([C@H]1C(=O)NN(C[C@@H]1CCNC1=O)C(=O)[C@H](F)Cl)C2(C)C 7.25

Could you now look at the following molecule, please?
Recorded result, CC(C)(C)[C@H](Nc1cc(F)ncn1)C(=O)N1C[C@@H]2CCC[C@@H]2[C@H]1C(=O)NN(C[C@@H]1CCNC1=O)C(=O)[C@H](F)Cl , pIC50: 7.43
